src = patent US20220009894A1

Molecular target: RORγt (Homo sapiens, UniProt P51449)
Construct: The plasmid of pFN26A-RORγt-LBD and pG14.35 (Promega, Cat. No. E1370) were co-transfected into HEK 293 cells
Assay: RORγt cellular reporter gene detection assay
Conditions: HEK 293 cells co-transfected with pFN26A-RORγt-LBD and pG14.35, in presence of antagonist Ursolic acid, 24 hrs; top concentration 50 μM
Label scheme for EC50: category 1 = under 0.3 µM, category 2 = from 0.3 µM up to 0.8 µM, category 3 = 0.8 µM and over

Query :: # classify by EC50 band: `C/C(=C\c1ccc2c(c1)N(S(=O)(=O)c1cccc(C(F)(F)F)c1)C[C@@H]1CN(CC(=O)OC(C)C)CCN21)c1c(F)cccc1Cl`
Result :: category 1

Query :: Same question, O=S(=O)(c1cccc(C(F)(F)F)c1)N1C[C@@H]2CC(O)CCN2c2ccc(-c3cc(F)cc(OC(F)F)c3)cc21 (stereo partly drawn) this time
Result :: category 3

Query :: Same question, CC(C(=O)O)N1CCN2c3ccc(-c4cc(F)cc(OC(F)F)c4)cc3N(S(=O)(=O)c3cccc(C(F)(F)F)c3)C[C@@H]2C1 (stereo partly drawn) this time
Result :: category 2

Query :: Same question, `C/C(=C\c1ccc2c(c1)N(S(=O)(=O)c1cccc(C(F)(F)F)c1)C[C@@H]1CN(C(C)(C)C(=O)OC(C)(C)C)CCN21)c1c(F)cccc1Cl` this time
Result :: category 3

Query :: Same question, `C/C(=C\c1ccc2c(c1)N(S(=O)(=O)c1cccc(C(F)(F)F)c1)C[C@@H]1CN(CC(=O)OCOC(=O)OC(C)C)CCN21)c1c(F)cccc1Cl` this time
Result :: category 1

Query :: Same question, COC(=O)C(C)N1CCN2c3ccc(/C=C(\C)c4c(F)cccc4Cl)cc3N(S(=O)(=O)c3cccc(C(F)(F)F)c3)C[C@@H]2C1 (stereo partly drawn) this time
Result :: category 3

Query :: Same question, `C/C(=C\c1ccc2c(c1)N(S(=O)(=O)c1cccc(C(F)(F)F)c1)C[C@@H]1CN(C(CO)CO)CCN21)c1c(F)cccc1Cl` this time
Result :: category 2

Query :: Same question, `C/C(=C\c1ccc2c(c1)N(S(=O)(=O)c1cccc(C(F)(F)F)c1)C[C@@H]1CN(C3(C(N)=O)CCC3)CCN21)c1c(F)cccc1Cl` this time
Result :: category 1

Query :: Same question, `CC(C)OC(=O)OCOC(=O)CN1CCN2c3ccc(/C=C/c4c(Cl)cccc4C(F)(F)F)cc3N(S(=O)(=O)c3cccc(C(F)(F)F)c3)C[C@@H]2C1` this time
Result :: category 2

Query :: Same question, `CC(C)(C)OC(=O)C(C)(C)N1CCN2c3ccc(-c4cc(F)cc(OC(F)F)c4)cc3N(S(=O)(=O)c3cccc(C(F)(F)F)c3)C[C@@H]2C1` this time
Result :: category 3

###

Exercise: for every item that follows, state its recorded pEC50.
Target: RORγt-LBD (Homo sapiens)
Sequence (P51449 269-508 limits assumed, species assumed): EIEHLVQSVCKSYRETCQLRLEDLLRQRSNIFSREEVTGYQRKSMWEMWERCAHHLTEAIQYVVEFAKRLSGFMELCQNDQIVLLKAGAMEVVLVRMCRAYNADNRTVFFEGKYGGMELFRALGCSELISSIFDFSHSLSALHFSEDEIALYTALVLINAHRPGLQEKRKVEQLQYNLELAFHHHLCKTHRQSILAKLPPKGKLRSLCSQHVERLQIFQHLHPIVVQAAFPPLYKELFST
Assay: Time-resolved fluorescence resonance energy-transfer assay (TR-FRET), co-activator peptide recruitment
Conditions: His-RORγt-LBD 30 nM, SRC peptide 500 nM; agonistic activity; averages of one or more measurements; read-out: TR-FRET Biochemical EC50/
Keep it numeric: pEC50 is minus log10 of the concentration in mol/L.

Query :: Given C/C(=C\c1ccc2c(c1)N(S(=O)(=O)c1cccc(C(F)(F)F)c1)C[C@@H]1CN(C(C)(CO)CO)CCN21)c1c(F)cccc1Cl [Example 71] , state its recorded pEC50.
Result :: 7.39

Query :: Same question, C/C(=C\c1ccc2c(c1)N(S(=O)(=O)c1cccc(C(F)(F)F)c1)C[C@@H]1CN(C(C)(C)C(=O)OC(C)(C)C)CCN21)c1c(F)cccc1Cl [Example 53] this time
Result :: 6.59

Query :: Same question, O=S(=O)(c1cccc(C(F)(F)F)c1)N1C[C@@H]2CNCCN2c2ccc(-c3cc(F)cc(OC(F)F)c3)cc21 [Example 12] this time
Result :: 6.87

Query :: Same question, O=S(=O)(c1cccc(C(F)(F)F)c1)N1C[C@@H]2COCCN2c2ccc(-c3cc(F)cc(OC(F)F)c3)cc21 [Example 98] this time
Result :: 7.69

Query :: Same question, NC(=O)OC1CCN2c3ccc(-c4cc(F)cc(OC(F)F)c4)cc3N(S(=O)(=O)c3cccc(C(F)(F)F)c3)C[C@@H]2C1 (stereo partly shown) [Example 104] this time
Result :: 7.33

Query :: Same question, CS(=O)(=O)N1CCN2c3ccc(-c4cc(F)cc(OC(F)F)c4)cc3N(S(=O)(=O)c3cc(C(F)(F)F)cnc3OCCO)C[C@@H]2C1 [Example 89] this time
Result :: 9.28

Query :: Same question, COC(=O)C(C)N1CCN2c3ccc(C4=CC(C)(C)OC(C)(C)C4)cc3N(S(=O)(=O)c3cccc(C(F)(F)F)c3)C[C@@H]2C1 (stereo partly shown) [Example 24] this time
Result :: 7.50

Query :: Same question, O=S(=O)(c1cccc(C(F)(F)F)c1)N1C[C@@H]2CC(F)CCN2c2ccc(-c3cc(F)cc(OC(F)F)c3)cc21 (stereo partly shown) [Example 103] this time
Result :: 7.39

Query :: Same question, C[C@@]1(OCCC(=O)O)CCN2c3ccc(-c4cc(F)cc(OC(F)F)c4)cc3N(S(=O)(=O)c3cccc(C(F)(F)F)c3)C[C@@H]2C1 [Example 113] this time
Result :: 7.66

Query :: Same question, C/C(=C\c1ccc2c(c1)N(S(=O)(=O)c1cccc(C(F)(F)F)c1)C[C@@H]1CN(C(C)(C)C(=O)O)CCN21)c1c(F)cccc1Cl [Example 56] this time
Result :: 7.35

Query :: Same question, O=S(=O)(c1cccc(C(F)(F)F)c1)N1C[C@@H]2CN(C3COC3)CCN2c2ccc(/C=C/c3c(Cl)cccc3C(F)(F)F)cc21 [Example 32] this time
Result :: 7.97

Query :: Same question, CC1(C)C=C(c2ccc3c(c2)N(S(=O)(=O)c2cccc(C(F)(F)F)c2)C[C@@H]2CN(C[C@H](O)CO)CCN32)CC(C)(C)O1 [Example 42] this time
Result :: 9.08

Query :: Same question, CC(=O)N1CCN2c3ccc(-c4cc(F)cc(OC(F)F)c4)cc3N(S(=O)(=O)c3cccc(C(F)(F)F)c3)C[C@@H]2C1 [Example 7] this time
Result :: 7.76

Query :: Same question, C/C(=C\c1ccc2c(c1)N(S(=O)(=O)c1cccc(C(F)(F)F)c1)C[C@@H]1CN(C(CO)CO)CCN21)c1c(F)cccc1Cl [Example 69] this time
Result :: 7.35

Query :: Same question, O=C(O)CN1CCN2c3ccc(/C=C/c4c(Cl)cccc4C(F)(F)F)cc3N(S(=O)(=O)c3cccc(OC(F)(F)F)c3)C[C@@H]2C1 [Example 86] this time
Result :: 7.11

Query :: Same question, CC1(C)C=C(c2ccc3c(c2)N(S(=O)(=O)c2cccc(C(F)(F)F)c2)C[C@@H]2CN(C(=O)CC#N)CCN32)CC(C)(C)O1 [Example 31] this time
Result :: 7.94

Query :: Same question, C/C(=C\c1ccc2c(c1)N(S(=O)(=O)c1cccc(C(F)(F)F)c1)C[C@@H]1CN(C(N)=S)CCN21)c1c(F)cccc1Cl [Example 63] this time
Result :: 7.63

Query :: Same question, CCOC(=O)CN1CCN2c3ccc(/C=C(\C)c4c(F)cccc4Cl)cc3N(S(=O)(=O)c3cccc(C(F)(F)F)c3)C[C@@H]2C1 [Example 43] this time
Result :: 7.76

Query :: Same question, O=C(O)CN1CCN2c3ccc(/C=C/c4c(Cl)cccc4C(F)(F)F)cc3N(S(=O)(=O)c3cccc(C(F)(F)F)c3)C[C@@H]2C1 [Example 20] this time
Result :: 7.49

Query :: Same question, CC(C)(C)OC(=O)C(C)(C)N1CCN2c3ccc(/C=C/c4c(Cl)cccc4C(F)(F)F)cc3N(S(=O)(=O)c3cccc(C(F)(F)F)c3)C[C@@H]2C1 [Example 52] this time
Result :: 6.74

Query :: Same question, C/C(=C\c1ccc2c(c1)N(S(=O)(=O)c1cccc(C(F)(F)F)c1)C[C@@H]1CN(C[C@@H](O)CO)CCN21)c1c(F)cccc1Cl [Example 37] this time
Result :: 7.43

Query :: Same question, CN1CCN(S(=O)(=O)c2cccc(C(F)(F)F)c2)c2cc(-c3cc(F)cc(OC(F)F)c3)ccc21 [Example 1] this time
Result :: 7.74

Query :: Same question, CC(C)OC(=O)CN1CCN2c3ccc(/C=C/c4c(Cl)cccc4C(F)(F)F)cc3N(S(=O)(=O)c3cccc(C(F)(F)F)c3)C[C@@H]2C1 [Example 47] this time
Result :: 8.45

Query :: Same question, COC(=O)CN1CCN2c3ccc(/C=C/c4c(Cl)cccc4C(F)(F)F)cc3N(S(=O)(=O)c3cccc(OC(F)(F)F)c3)C[C@@H]2C1 [Example 85] this time
Result :: 7.12

Query :: Same question, O=C(O)COC1CCN2c3ccc(-c4cc(F)cc(OC(F)F)c4)cc3N(S(=O)(=O)c3cccc(C(F)(F)F)c3)C[C@@H]2C1 (stereo partly shown) [Example 106] this time
Result :: 7.14
